The origin of these recorded values is patent US10174097B2.

# assay-target: Abeta oligomers (Homo sapiens)
# experiment-summary: QIAD method, elimination of Abeta oligomers (density gradient centrifugation, RP-HPLC)
# Format: biochemical
# protocol-conditions: ratio of Abeta to peptide of 8:1, fractions 4-6, FIG. 2
Where a SMILES comes first, the peptide text is derived from it. [ ]: non-standard residue; d: D form.
assay-metric: Elimination of Abeta oligomers
Field note: include the unit after the figure.

Exercise: Entry CC[C@@H](C)[C@@H](NC(=O)[C@@H](CCCNC(=N)N)NC(=O)[C@@H](CCCCN)NC(=O)[C@H](N)CCCNC(=N)N)C(=O)N[C@H](CCCNC(=N)N)C(=O)N[C@H](CC(C)C)C(=O)N[C@@H](C(=O)N[C@@H](C(=O)N[C@H](CCCCN)C(=O)N[C@H](CCCCN)C(=O)N[C@H](CCCCN)C(=O)N[C@H](CCCNC(=N)N)C(N)=O)[C@H](C)O)C(C)C [ANK6, rkrirlvtkkkr] (H-[dR][dK][dR][dI][dR][dL][dV][dT][dK][dK][dK][dR]-NH2) : reported Elimination of Abeta oligomers = ?
Solution: 81±3%

----------
# assay-target: Abeta oligomers (Homo sapiens, UniProt P05067)
# Sequence (P05067 672-713 limits assumed): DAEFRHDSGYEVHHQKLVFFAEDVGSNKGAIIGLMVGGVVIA
# experiment-summary: QIAD method, elimination of Abeta oligomers (density gradient centrifugation, RP-HPLC)
# Format: biochemical
# protocol-conditions: ratio of Abeta to peptide of 8:1, fractions 4-6, FIG. 2
Where a SMILES comes first, the peptide text is derived from it. [ ]: non-standard residue; d: D form. dPhe(4-F) = N[C@H](Cc1ccc(F)cc1)C(=O)O
// reported Elimination of Abeta oligomers per item
Field note: include the unit after the figure.

# compound, Elimination of Abeta oligomers
data = [
    ("CC[C@@H](C)[C@@H](NC(=O)[C@@H](Cc1c[nH]cn1)NC(=O)[C@H](NC(=O)[C@@H](Cc1ccc(F)cc1)NC(=O)[C@@H](CC(C)C)NC(=O)[C@@H](CCCNC(=N)N)NC(=O)[C@H](NC(=O)[C@@H](CCCNC(=N)N)NC(=O)[C@@H](CCCCN)NC(=O)[C@H](N)CCCNC(=N)N)C(C)C)[C@H](C)O)C(=O)N[C@H](CCCCN)C(=O)N[C@H](CCCNC(=N)N)C(N)=O [ANK7, rkrvrl02thikr] (H-[dR][dK][dR][dV][dR][dL][dPhe(4-F)][dT][dH][dI][dK][dR]-NH2)", "73±1%"),
    ("CC(C)C[C@@H](NC(=O)[C@@H](CCCNC(=N)N)NC(=O)[C@H](NC(=O)[C@@H](CCCNC(=N)N)NC(=O)[C@@H](CCCCN)NC(=O)[C@H](N)CCCNC(=N)N)C(C)C)C(=O)N[C@@H](C(=O)N[C@H](Cc1ccc(O)cc1)C(=O)N[C@H](Cc1c[nH]cn1)C(=O)N[C@H](CCCCN)C(=O)N[C@H](CCCCN)C(=O)N[C@H](CCCNC(=N)N)C(N)=O)C(C)C [ANK5, rkrvrlvyhkkr] (H-[dR][dK][dR][dV][dR][dL][dV][dY][dH][dK][dK][dR]-NH2)", "72±2%"),
]

Please examine the following record next.
Exercise: Short answer please: Elimination of Abeta oligomers, Abeta oligomers (Homo sapiens, UniProt P05067), entry CC[C@@H](C)[C@@H](NC(=O)[C@@H](CCCNC(=N)N)NC(=O)[C@@H](CCCCN)NC(=O)[C@H](N)CCCNC(=N)N)C(=O)N[C@H](CCCNC(=N)N)C(=O)N[C@H](CC(C)C)C(=O)N[C@@H](C(=O)N[C@H](Cc1ccc(O)cc1)C(=O)N[C@H](Cc1c[nH]cn1)C(=O)N[C@H](Cc1c[nH]c2ccccc12)C(=O)N[C@H](CC(N)=O)C(=O)N[C@H](CCCNC(=N)N)C(N)=O)C(C)C [ANK4, rkrirlvyhwnr] (H-[dR][dK][dR][dI][dR][dL][dV][dY][dH][dW][dN][dR]-NH2)
Solution: 59±16%

----------
# assay-target: Abeta fibrils (Homo sapiens)
# Construct: Pre-incubated Abeta was co-incubated with the peptides
# Sequence (P05067 672-713 limits assumed): as above
# experiment-summary: Peptide microarray, binding of FITC Abeta fibrils to immobilized peptides
# protocol-conditions: 1 hour at room temperature, control subtracted, averaged
[ ]: non-standard residue; d: D form. dPhg = N[C@@H](C(=O)O)c1ccccc1
assay-metric: Binding signal to Abeta fibrils (rfu)
Express the result in rfu but write the number alone.

# substance, Binding signal to Abeta fibrils, rfu
data = [
    ("rkrirl06yhikr (H-[dR][dK][dR][dI][dR][dL][dPhg][dY][dH][dI][dK][dR]-NH2; SMILES CC[C@@H](C)[C@@H](NC(=O)[C@@H](Cc1c[nH]cn1)NC(=O)[C@@H](Cc1ccc(O)cc1)NC(=O)[C@H](NC(=O)[C@@H](CC(C)C)NC(=O)[C@@H](CCCNC(=N)N)NC(=O)[C@H](NC(=O)[C@@H](CCCNC(=N)N)NC(=O)[C@@H](CCCCN)NC(=O)[C@H](N)CCCNC(=N)N)[C@H](C)CC)c1ccccc1)C(=O)N[C@H](CCCCN)C(=O)N[C@H](CCCNC(=N)N)C(N)=O) [ANK17, D3 derivative; 06: Phenylglycine (D)]", 1.9),
]

Please examine the following record next.
Exercise: Entry rkrirl06yhinr (H-[dR][dK][dR][dI][dR][dL][dPhg][dY][dH][dI][dN][dR]-NH2; SMILES CC[C@@H](C)[C@@H](NC(=O)[C@@H](Cc1c[nH]cn1)NC(=O)[C@@H](Cc1ccc(O)cc1)NC(=O)[C@H](NC(=O)[C@@H](CC(C)C)NC(=O)[C@@H](CCCNC(=N)N)NC(=O)[C@H](NC(=O)[C@@H](CCCNC(=N)N)NC(=O)[C@@H](CCCCN)NC(=O)[C@H](N)CCCNC(=N)N)[C@H](C)CC)c1ccccc1)C(=O)N[C@H](CC(N)=O)C(=O)N[C@H](CCCNC(=N)N)C(N)=O) [ANK2, D3 derivative; 06: Phenylglycine (D)] : reported Binding signal to Abeta fibrils = ?
Solution: 0.8

----------
# assay-target: Abeta monomers (Homo sapiens, UniProt P05067)
# Construct: incubate with FITC Abeta monomers, oligomers, fibrils and FITC for 1 hour at room temperature
# Sequence (P05067 672-713 limits assumed): as above
# experiment-summary: Peptide microarray, binding of FITC Abeta monomers to immobilized peptides
# protocol-conditions: quotient binding signal to monomers / binding signal to fibrils
# Excerpt: The procedure for identifying peptides that bind specifically to amyloid beta monomer or specifically to amyloid beta oligomers and for determining the binding specificity of peptides within the meaning of the present invention can thus be as follows. […] The binding of the fluorescence-labeled Abeta to the immobilized peptides is detected by way of the fluorescent dye. The more Abeta binds to the peptide, the higher the fluorescence signal is. […]
[ ]: non-standard residue; d: D form. dPhg = N[C@@H](C(=O)O)c1ccccc1
assay-metric: Binding specificity monomer to fibrils

Exercise: Short answer please: Binding specificity monomer to fibrils, Abeta monomers (Homo sapiens, UniProt P05067), entry rkrirl06yhinr (H-[dR][dK][dR][dI][dR][dL][dPhg][dY][dH][dI][dN][dR]-NH2; SMILES CC[C@@H](C)[C@@H](NC(=O)[C@@H](Cc1c[nH]cn1)NC(=O)[C@@H](Cc1ccc(O)cc1)NC(=O)[C@H](NC(=O)[C@@H](CC(C)C)NC(=O)[C@@H](CCCNC(=N)N)NC(=O)[C@H](NC(=O)[C@@H](CCCNC(=N)N)NC(=O)[C@@H](CCCCN)NC(=O)[C@H](N)CCCNC(=N)N)[C@H](C)CC)c1ccccc1)C(=O)N[C@H](CC(N)=O)C(=O)N[C@H](CCCNC(=N)N)C(N)=O) [ANK2, D3 derivative; 06: Phenylglycine (D)]
Solution: 7.1

----------
# assay-target: Abeta monomers (Homo sapiens)
# Construct: incubate with FITC Abeta monomers, oligomers, fibrils and FITC for 1 hour at room temperature
# experiment-summary: Peptide microarray, binding of FITC Abeta monomers to immobilized peptides
# protocol-conditions: peptide microarray, FITC Abeta, 1 hour at room temperature, control subtracted, averaged
[ ]: non-standard residue; d: D form. d(hArg) = N=C(N)NCCCC[C@@H](N)C(=O)O; dPhg = N[C@@H](C(=O)O)c1ccccc1
// reported Binding signal to Abeta monomers per item
Express the result in rfu but write the number alone.

Known results for substances:
# substance, assay-target, value-units, Binding signal to Abeta monomers
records = [
    ("rkrirl06yhinr (H-[dR][dK][dR][dI][dR][dL][dPhg][dY][dH][dI][dN][dR]-NH2; SMILES CC[C@@H](C)[C@@H](NC(=O)[C@@H](Cc1c[nH]cn1)NC(=O)[C@@H](Cc1ccc(O)cc1)NC(=O)[C@H](NC(=O)[C@@H](CC(C)C)NC(=O)[C@@H](CCCNC(=N)N)NC(=O)[C@H](NC(=O)[C@@H](CCCNC(=N)N)NC(=O)[C@@H](CCCCN)NC(=O)[C@H](N)CCCNC(=N)N)[C@H](C)CC)c1ccccc1)C(=O)N[C@H](CC(N)=O)C(=O)N[C@H](CCCNC(=N)N)C(N)=O) [ANK2, D3 derivative; 06: Phenylglycine (D)]", "Abeta monomers (Homo sapiens)", "rfu", 5.6),
    ("rpr07rlhtkkkr (H-[dR][dP][dR][d(hArg)][dR][dL][dH][dT][dK][dK][dK][dR]-NH2; SMILES CC(C)C[C@@H](NC(=O)[C@@H](CCCNC(=N)N)NC(=O)[C@@H](CCCCNC(=N)N)NC(=O)[C@@H](CCCNC(=N)N)NC(=O)[C@H]1CCCN1C(=O)[C@H](N)CCCNC(=N)N)C(=O)N[C@H](Cc1c[nH]cn1)C(=O)N[C@@H](C(=O)N[C@H](CCCCN)C(=O)N[C@H](CCCCN)C(=O)N[C@H](CCCCN)C(=O)N[C@H](CCCNC(=N)N)C(N)=O)[C@H](C)O) [ANK18, D3 derivative; 07: D-Homoarginine]", "Abeta monomers (Homo sapiens)", "rfu", 1.2),
]

Please examine the following record next.
Exercise: Entry rkr07rlvtkrnr (H-[dR][dK][dR][d(hArg)][dR][dL][dV][dT][dK][dR][dN][dR]-NH2; SMILES CC(C)C[C@@H](NC(=O)[C@@H](CCCNC(=N)N)NC(=O)[C@@H](CCCCNC(=N)N)NC(=O)[C@@H](CCCNC(=N)N)NC(=O)[C@@H](CCCCN)NC(=O)[C@H](N)CCCNC(=N)N)C(=O)N[C@@H](C(=O)N[C@@H](C(=O)N[C@H](CCCCN)C(=O)N[C@H](CCCNC(=N)N)C(=O)N[C@H](CC(N)=O)C(=O)N[C@H](CCCNC(=N)N)C(N)=O)[C@H](C)O)C(C)C) [ANK16, D3 derivative; 07: D-Homoarginine] : reported Binding signal to Abeta monomers = ?
Solution: 11.9
